target: HLA-B*58:01; assay: IEDB peptide-MHC binding, purified MHC/direct/fluorescence; filed as Kd, often an IC50 or EC50 that approximates it; bounds were set here for any values at or beyond the usual limits of such assays; conditions: source organism: Listeria monocytogenes serotype 4b str. H7858
ASSAY_ENDPOINT: Kd (µM)
Hi! Could you send only the number? It should be in µM, unit omitted.

IN: Dear colleague, I am looking for the recorded Kd of the following sequence: KSAYPFDEL
OUT: 0.046

###

biological target: HLA-A*02:17; assay: IEDB peptide-MHC binding, purified MHC/competitive/radioactivity; filed as Kd, often an IC50 or EC50 that approximates it; bounds were set here for any values at or beyond the usual limits of such assays; conditions: source organism: Dengue virus 4 Dominica/814669/1981
ASSAY_ENDPOINT: pKd
The scale used: pKd is minus the common logarithm of the concentration in molar units.

IN: Dear colleague, I am looking for the recorded pKd of the following sequence: KMSPGYVLGV
OUT: 6.49
